Entry source: the supplement of paper PMC12855868

B1: library; numbered along this chain (parent)
chain: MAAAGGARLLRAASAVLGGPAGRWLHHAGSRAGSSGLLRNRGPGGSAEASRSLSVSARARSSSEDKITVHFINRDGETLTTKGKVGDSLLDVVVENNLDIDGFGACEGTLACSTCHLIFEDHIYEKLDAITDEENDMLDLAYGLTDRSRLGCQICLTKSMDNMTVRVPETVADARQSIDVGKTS

- Variants of: B1
- test_details: scaled log2 fold change in cell abundance, elesclomol vs control (0 = silent mean, 1 = nonsense mean) (scaled log2 ratio); higher = higher viability under elesclomol (loss of FDX1 cuproptosis function);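 further: variant abundance is its share of total variant reads in each endpoint sample, from next-generation sequencing of the integrated ORF PCR-amplified out of genomic DNA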
- condition_parameters: with ABC1 FDX1 KO; elesclomol 5 nM; glucose 10 mM; 14 days
Okay, here is how we bin by scaled log2 fold change: lo (below 0.01), med (0.01 to below 0.2), hi (0.2 or more)

{"columns": ["mutant_designation", "cat"],
 "data": [
  ["V55D", "lo"],
  ["P43E", "hi"],
  ["H116D", "med"],
  ["L144T", "med"],
  ["G33N", "med"],
  ["A13T", "med"],
  ["D146I", "lo"],
  ["G76N", "lo"],
  ["C112G", "hi"],
  ["P20I", "hi"],
  ["T170F", "hi"],
  ["R58F", "lo"],
  ["D101E", "med"],
  ["V93S", "med"],
  ["E133Y", "lo"],
  ["L117P", "hi"],
  ["G19E", "hi"],
  ["N162E", "med"],
  ["D132V", "med"],
  ["F119W", "med"],
  ["A111H", "lo"],
  ["S62R", "lo"]
]}
